- Test system: Escherichia coli ATCC25922
- assay-explanation: MIC by broth microdilution (CLSI) against Escherichia coli ATCC 25922
- Format: cell-based
- experimental-context: Escherichia coli ATCC25922, in vitro; read-out: MIC
Where a name gives a salt, the structure may show the parent alone.
measured-attribute: MIC (µg/mL)
Answers are plain numbers, in µg/mL.

>  <compound>
C[C@@H]1CC[C@@]23CCC(=O)C2[C@]1(C)[C@H](OC(=O)CSC1CCC(CNC(=O)CN)CC1)C[C@](C)(CCc1ccc(CNCCN)cc1)[C@@H](O)[C@@H]3C (stereo partly shown) [Example 152, trihydrochloride]

>  <measured-attribute>
MIC

>  <readout-units>
µg/mL

>  <result-value>
4

$$$$

Dear colleague, could you send me MIC for each of the items below? Thanks.
1. C[C@@H]1CC[C@@]23CCC(=O)[C@H]2[C@]1(C)[C@H](OC(=O)CSC1CCC(CN)CC1)C[C@](C)(CNCCCCCCN)[C@@H](O)[C@@H]3C (stereo partly shown) [Example 47, trihydrochloride]
2. C[C@@H]1CC[C@@]23CCC(=O)[C@H]2[C@]1(C)[C@H](OC(=O)CSc1ccc(CCCN)cc1)C[C@](C)(CNCCCCCCN)[C@@H](O)[C@@H]3C [Example 48, trihydrochloride]
3. C[C@@H]1CC[C@@]23CCC(=O)[C@H]2[C@]1(C)[C@H](OC(=O)CSc1ccc(C(=O)NCc2ccc(CN)cc2)cc1)C[C@](C)(CNCCCCCCN)[C@@H](O)[C@@H]3C [Example 23, trihydrochloride]
4. C[C@@H]1CC[C@@]23CCC(=O)[C@H]2[C@]1(C)[C@H](OC(=O)CSC1CCCNCC1)C[C@](C)(CNCCCCCCN)[C@@H](O)[C@@H]3C (stereo partly shown) [Example 130, trihydrochloride]
5. C[C@@H]1CC[C@@]23CCC(=O)[C@H]2[C@]1(C)[C@H](OC(=O)CSC1CCCNCC1)C[C@](C)(CCNc1ccc(CN)cc1)[C@@H](O)[C@@H]3C (stereo partly shown) [Example 143, trihydrochloride]
6. C[C@@H]1CC[C@@]23CCC(=O)[C@H]2[C@]1(C)[C@H](OC(=O)CSC1CCN(C(=O)CN)CC1)C[C@](C)(CNCc1ccc(CN)cc1)[C@@H](O)[C@@H]3C [Example 78, trihydrochloride]

1. 0.5
2. 0.25
3. 1
4. 0.5
5. 4
6. 2

Required: MIC, one value per compound below.
1. C[C@@H]1CC[C@@]23CCC(=O)[C@H]2[C@]1(C)[C@H](OC(=O)CSc1ccc(CN)cn1)C[C@](C)(CNCc1ccc(CN)cc1)[C@@H](O)[C@@H]3C [Example 98]
2. C[C@@H]1CC[C@@]23CCC(=O)[C@H]2[C@]1(C)[C@H](OC(=O)CSc1ccc(CN)cn1)C[C@](C)(CNCc1ccc(CN)c(F)c1)[C@@H](O)[C@@H]3C [Example 99]

0.5
0.5
